From: paper PMC6964649

- System: D. rerio embryos
- measurement-notes: D. rerio embryotoxicity "photoactivation" assay (ring-closed photoform in darkness, then in situ photoconversion)
- Assay type: in vivo, Danio rerio
- condition-summary: after 24 h with ring-closed form in dark, in situ illumination 10 min, λ = 570 nm, approx. 20 mW/cm^2; mortality 24 h after illumination; embryos 5 dpf at readout; value ± STD
Starred links: 1 amine or outer side, 2 acyl side, 3 side chain; linkers in the order of their positions; H or OH if unused. Positions of bridges follow the written chain, without caps; N, C: chain ends. Non-standard residues stand in square brackets, D forms with d. Residues, ends and D or L forms follow the SMILES beside them. X2 = Cc1sc(C(=O)[C@@H]2CCCN2[*:2])cc1C1=C(c2cc(C(=O)[*:1])sc2C)CCC1; Leu(3R-OH) = CC(C)[C@@H](O)[C@H](N)C(=O)O; Orn = NCCC[C@H](N)C(=O)O
Below is a list of entries, each paired with its recorded LD50 (opened)^24h value.

molecule: Cc1sc2cc1C1=C(CCC1)c1cc(sc1C)C(=O)[C@@H]1CCCN1C(=O)[C@H](C(C)C)NC(=O)[C@H](CCCCN)NC(=O)[C@H](C(C)C)NC(=O)[C@@H](CCCCN)NC(=O)[C@H](CC(C)C)NC(=O)[C@@H]1CCCN1C(=O)[C@@H](Cc1ccccc1)NC(=O)[C@H](C(C)C)NC(=O)[C@H](CCCCN)NC(=O)[C@H](CC(C)C)NC(=O)[C@H](CCCCN)NC(=O)[C@H](C(C)C)NC2=O [Peptide 17] (VKLKV[dF]PL[dK]VKV; linker N-C via X2)
LD50 (opened)^24h (µg/mL): 9.4
--
molecule: Cc1sc2cc1C1=C(CCC1)c1cc(sc1C)C(=O)[C@@H]1CCCN1C(=O)[C@H](C(C)C)NC(=O)[C@H](CCCN)NC(=O)[C@H]([C@H](O)C(C)C)NC(=O)[C@@H]1CCCN1C(=O)[C@@H](Cc1ccccc1)NC(=O)[C@H](C(C)C)NC(=O)[C@H](CCCN)NC(=O)[C@H]([C@H](O)C(C)C)NC2=O [Peptide 15] ([Leu(3R-OH)][Orn]V[dF]P[Leu(3R-OH)][Orn]V; linker N-C via X2)
LD50 (opened)^24h (µg/mL): 7.2
--
molecule: Cc1sc2cc1C1=C(CCC1)c1cc(sc1C)C(=O)[C@@H]1CCCN1C(=O)[C@H](C(C)C)NC(=O)[C@H](CCCN)NC(=O)[C@H](C(C)C)NC(=O)[C@@H]1CCCN1C(=O)[C@@H](Cc1ccccc1)NC(=O)[C@H](C(C)C)NC(=O)[C@H](CCCN)NC(=O)[C@H]([C@H](O)C(C)C)NC2=O [Peptide 12] ([Leu(3R-OH)][Orn]V[dF]PV[Orn]V; linker N-C via X2)
LD50 (opened)^24h (µg/mL): 2.1

====

- Test system: D. rerio embryos
- measurement-notes: D. rerio embryotoxicity "photoactivation" assay (ring-closed photoform in darkness, then in situ photoconversion)
- Type: in vivo, Danio rerio
- condition-summary: after 24 h with ring-closed form in dark, in situ illumination 10 min, λ = 570 nm, approx. 20 mW/cm^2; mortality 24 h after illumination; embryos 5 dpf at readout; value ± STD
Starred links: 1 amine or outer side, 2 acyl side, 3 side chain; linkers in the order of their positions; H or OH if unused. Positions of bridges follow the written chain, without caps; N, C: chain ends. Non-standard residues stand in square brackets, D forms with d. Residues, ends and D or L forms follow the SMILES beside them. X2 = Cc1sc(C(=O)[C@@H]2CCCN2[*:2])cc1C1=C(c2cc(C(=O)[*:1])sc2C)CCC1; NMeL = CN[C@@H](CC(C)C)C(=O)O; Orn = NCCC[C@H](N)C(=O)O

compound: CC[C@H](C)[C@@H]1NC(=O)c2cc(c(C)s2)C2=C(CCC2)c2cc(sc2C)C(=O)[C@@H]2CCCN2C(=O)[C@H]([C@@H](C)CC)NC(=O)[C@H](CCCN)NC(=O)[C@H](CC(C)C)NC(=O)[C@H](CC(C)C)N(C)C(=O)[C@@H](Cc2ccccc2)NC(=O)[C@H]([C@@H](C)CC)NC(=O)[C@H](CCCN)NC1=O [Peptide 10] (I[Orn]I[dF][NMeL]L[Orn]I; linker N-C via X2)
LD50 (opened)^24h (µg/mL): 1.3

compound: CC[C@H](C)[C@@H]1NC(=O)c2cc(c(C)s2)C2=C(CCC2)c2cc(sc2C)C(=O)[C@@H]2CCCN2C(=O)[C@H](CC(C)C)NC(=O)[C@H](CCCN)NC(=O)[C@H]([C@@H](C)CC)NC(=O)[C@@H]2CCCN2C(=O)[C@H]2CCCN2C(=O)[C@H](CC(C)C)NC(=O)[C@H](CCCN)NC1=O [Peptide 9] (I[Orn]L[dP]PI[Orn]L; linker N-C via X2)
LD50 (opened)^24h (µg/mL): 0.8

compound: Cc1sc2cc1C1=C(CCC1)c1cc(sc1C)C(=O)[C@@H]1CCCN1C(=O)[C@H]([C@H](O)C(C)C)NC(=O)[C@H](CCCN)NC(=O)[C@H](C(C)C)NC(=O)[C@@H]1CCCN1C(=O)[C@@H](Cc1ccccc1)NC(=O)[C@H](C(C)C)NC(=O)[C@H](CCCN)NC(=O)[C@H](C(C)C)NC2=O [Peptide 14]
LD50 (opened)^24h (µg/mL): 4.6

====

- Tested on: D. rerio embryos
- measurement-notes: D. rerio embryotoxicity assay, direct application of ring-open photoform
- Assay type: in vivo, Danio rerio
- condition-summary: direct application of 1 or ring-open photoform; zebrafish embryos at 3 dpf; 24 h incubation; final DMSO 0.2%; ambient light; value ± STD
Starred links: 1 amine or outer side, 2 acyl side, 3 side chain; linkers in the order of their positions; H or OH if unused. Positions of bridges follow the written chain, without caps; N, C: chain ends. Non-standard residues stand in square brackets, D forms with d. Residues, ends and D or L forms follow the SMILES beside them. X2 = Cc1sc(C(=O)[C@@H]2CCCN2[*:2])cc1C1=C(c2cc(C(=O)[*:1])sc2C)CCC1; Leu(3R-OH) = CC(C)[C@@H](O)[C@H](N)C(=O)O; NMeL = CN[C@@H](CC(C)C)C(=O)O; Orn = NCCC[C@H](N)C(=O)O

compound: Cc1sc2cc1C1=C(CCC1)c1cc(sc1C)C(=O)[C@@H]1CCCN1C(=O)[C@H](C(C)C)NC(=O)[C@H](CCCCN)NC(=O)[C@H](C(C)C)NC(=O)[C@H](CC(C)C)NC(=O)[C@H](CCCCN)NC(=O)[C@@H]1CCCN1C(=O)[C@@H](Cc1ccccc1)NC(=O)[C@H](C(C)C)NC(=O)[C@H](CCCCN)NC(=O)[C@H](CC(C)C)NC(=O)[C@H](CCCCN)NC(=O)[C@H](C(C)C)NC2=O [Peptide 18] (VKLKV[dF]PKLVKV; linker N-C via X2)
LD50 (open)^24h (µg/mL): 0.4
//
compound: CC[C@H](C)[C@@H]1NC(=O)c2cc(c(C)s2)C2=C(CCC2)c2cc(sc2C)C(=O)[C@@H]2CCCN2C(=O)[C@H]([C@@H](C)CC)NC(=O)[C@H](CCCN)NC(=O)[C@H](CC(C)C)NC(=O)[C@H](CC(C)C)N(C)C(=O)[C@@H](Cc2ccccc2)NC(=O)[C@H]([C@@H](C)CC)NC(=O)[C@H](CCCN)NC1=O [Peptide 10] (I[Orn]I[dF][NMeL]L[Orn]I; linker N-C via X2)
LD50 (open)^24h (µg/mL): 1.0
//
compound: Cc1sc2cc1C1=C(CCC1)c1cc(sc1C)C(=O)[C@@H]1CCCN1C(=O)[C@H](C(C)C)NC(=O)[C@H](CCCN)NC(=O)[C@H](C(C)C)NC(=O)[C@@H]1CCCN1C(=O)[C@@H](Cc1ccccc1)NC(=O)[C@H](C(C)C)NC(=O)[C@H](CCCN)NC(=O)[C@H]([C@H](O)C(C)C)NC2=O [Peptide 12] ([Leu(3R-OH)][Orn]V[dF]PV[Orn]V; linker N-C via X2)
LD50 (open)^24h (µg/mL): 3.6

====

- Tested on: D. rerio embryos
- measurement-notes: D. rerio embryotoxicity "photoactivation" assay (ring-closed photoform in darkness, then in situ photoconversion)
- Format: in vivo, Danio rerio
- condition-summary: after 24 h with ring-closed form in dark, in situ illumination 10 min, λ = 570 nm, approx. 20 mW/cm^2; mortality 1 h after illumination; embryos 4 dpf; value ± STD
Starred links: 1 amine or outer side, 2 acyl side, 3 side chain; linkers in the order of their positions; H or OH if unused. Positions of bridges follow the written chain, without caps; N, C: chain ends. Non-standard residues stand in square brackets, D forms with d. Residues, ends and D or L forms follow the SMILES beside them. *: point of attachment. X2 = Cc1sc(C(=O)[C@@H]2CCCN2[*:2])cc1C1=C(c2cc(C(=O)[*:1])sc2C)CCC1; Leu(3R-OH) = CC(C)[C@@H](O)[C@H](N)C(=O)O; Orn = NCCC[C@H](N)C(=O)O; NHiPr = CC(C)N*

molecule: Cc1sc2cc1C1=C(CCC1)c1cc(sc1C)C(=O)[C@@H]1CCCN1C(=O)[C@H](C(C)C)NC(=O)[C@H](CCCN)NC(=O)[C@H](C(C)C)NC(=O)[C@@H]1CCCN1C(=O)[C@@H](Cc1ccccc1)NC(=O)[C@H](C(C)C)NC(=O)[C@H](CCCN)NC(=O)[C@H](CC(=O)NC(C)C)NC2=O [Peptide 7] (D(NHiPr)[Orn]V[dF]PV[Orn]V; linker N-C via X2)
LD50 (opened)^1h: 18.2 ± 4.6 µg/mL
--
molecule: Cc1sc2cc1C1=C(CCC1)c1cc(sc1C)C(=O)[C@@H]1CCCN1C(=O)[C@H]([C@H](O)C(C)C)NC(=O)[C@H](CCCN)NC(=O)[C@H](C(C)C)NC(=O)[C@@H]1CCCN1C(=O)[C@@H](Cc1ccccc1)NC(=O)[C@H](C(C)C)NC(=O)[C@H](CCCN)NC(=O)[C@H](C(C)C)NC2=O [Peptide 14]
LD50 (opened)^1h: 9.1 ± 4.2 µg/mL
--
molecule: Cc1sc2cc1C1=C(CCC1)c1cc(sc1C)C(=O)[C@@H]1CCCN1C(=O)[C@H](C(C)C)NC(=O)[C@H](CCCCN)NC(=O)[C@H](C(C)C)NC(=O)[C@H](CC(C)C)NC(=O)[C@H](CCCCN)NC(=O)[C@@H]1CCCN1C(=O)[C@@H](Cc1ccccc1)NC(=O)[C@H](C(C)C)NC(=O)[C@H](CCCCN)NC(=O)[C@H](CC(C)C)NC(=O)[C@H](CCCCN)NC(=O)[C@H](C(C)C)NC2=O [Peptide 18] (VKLKV[dF]PKLVKV; linker N-C via X2)
LD50 (opened)^1h: 12.3 ± 1.5 µg/mL
--
molecule: Cc1sc2cc1C1=C(CCC1)c1cc(sc1C)C(=O)[C@@H]1CCCN1C(=O)[C@H](C(C)C)NC(=O)[C@H](CCCN)NC(=O)[C@H](C(C)C)NC(=O)[C@@H]1CCCN1C(=O)[C@@H](Cc1ccccc1)NC(=O)[C@H](C(C)C)NC(=O)[C@H](CCCN)NC(=O)[C@H]([C@H](O)C(C)C)NC2=O [Peptide 12] ([Leu(3R-OH)][Orn]V[dF]PV[Orn]V; linker N-C via X2)
LD50 (opened)^1h: 6.2 ± 0.0 µg/mL
--
molecule: Cc1sc2cc1C1=C(CCC1)c1cc(sc1C)C(=O)[C@@H]1CCCN1C(=O)[C@H](CC(C)C)NC(=O)[C@H](CCCN)NC(=O)[C@H](C(C)C)NC(=O)[C@@H]1CCCN1C(=O)[C@@H](Cc1ccccc1)NC(=O)[C@H](CC(C)C)NC(=O)[C@H](CCCN)NC(=O)[C@H](CCCN)NC2=O [Peptide 5]
LD50 (opened)^1h: 8.1 ± 1.0 µg/mL
--
molecule: CC[C@H](C)[C@@H]1NC(=O)c2cc(c(C)s2)C2=C(CCC2)c2cc(sc2C)C(=O)[C@@H]2CCCN2C(=O)[C@H](CC(C)C)NC(=O)[C@H](CCCN)NC(=O)[C@H]([C@@H](C)CC)NC(=O)[C@@H]2CCCN2C(=O)[C@H]2CCCN2C(=O)[C@H](CC(C)C)NC(=O)[C@H](CCCN)NC1=O [Peptide 9] (I[Orn]L[dP]PI[Orn]L; linker N-C via X2)
LD50 (opened)^1h: 2.2 ± 0.5 µg/mL
